# inhibition at 10 µM values compiled below
Target: recombinant human mPGES-1 (Homo sapiens, UniProt O14684)
Construct: made in house; host or cells: Rosetta E. coli (microsomal/membrane fraction)
Sequence (O14684 1-152): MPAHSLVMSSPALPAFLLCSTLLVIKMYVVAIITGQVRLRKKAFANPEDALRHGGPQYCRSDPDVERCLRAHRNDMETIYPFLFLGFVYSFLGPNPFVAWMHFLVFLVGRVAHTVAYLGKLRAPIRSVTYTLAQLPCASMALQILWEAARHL
Assay: mPGES-1 inhibition, HTRF detection of PGE2 (Biological Test)
Assay type: biochemical

compound: COc1cc2[nH]c(Nc3c(Cl)cncc3Cl)nc2cc1C(=O)NCc1ncccc1C1CCC1
inhibition at 10 µM: 100%
//
compound: Cn1c(Nc2c(Cl)cncc2Cl)nc2cc(C(=O)NCc3ncccc3C(F)(F)F)ccc21
inhibition at 10 µM: 53%
//
compound: Cn1c(Nc2c(Cl)cncc2Cl)nc2cc(C(=O)Nc3ccc(Br)cc3)ccc21
inhibition at 10 µM: 100%
//
compound: Cn1c(Nc2c(Cl)cncc2Cl)nc2cc(C(=O)Nc3ccc(Br)cc3)c(OC3CCOC3)cc21 (stereo not shown)
inhibition at 10 µM: 100%
//
compound: CCOc1cc2[nH]c(Nc3c(Cl)cncc3Cl)nc2cc1C(=O)NCc1ncccc1C(F)(F)F
inhibition at 10 µM: 99%
//
compound: CN(C)c1cc2c(cc1C(=O)NC1CCC(C)(C)CC1)nc(Nc1c(Cl)cncc1Cl)n2C
inhibition at 10 µM: 100%
//
compound: CCOc1cc2c(cc1C(=O)Nc1cc(C(F)(F)F)ccn1)nc(Nc1c(Cl)cncc1Cl)n2CC(F)(F)F
inhibition at 10 µM: 94%
//
compound: COc1cc2[nH]c(Nc3c(Cl)cncc3Cl)nc2cc1C(=O)Nc1cccc(N(C)C)n1
inhibition at 10 µM: 100%
//
compound: COCCOc1cc2c(cc1C(=O)Nc1ccc(Br)cc1)nc(Nc1c(Cl)cncc1Cl)n2C
inhibition at 10 µM: 100%
//
compound: CCOc1cc2[nH]c(Nc3c(Cl)cncc3Cl)nc2cc1C(=O)Nc1ccc(F)c(C(F)F)n1
inhibition at 10 µM: 98%
//
compound: Cn1c(Nc2c(Cl)cncc2Cl)nc2cc(C(=O)Nc3ccc(Br)cc3)c(OCCN3CCCC3)cc21
inhibition at 10 µM: 96%
//
compound: CCOc1cc2[nH]c(Nc3c(Cl)cncc3Cl)nc2cc1C(=O)Nc1cc(C(F)F)c(F)cn1
inhibition at 10 µM: 100%
//
compound: CCCOc1cc2c(cc1C(=O)Nc1ccc(Br)cc1)nc(Nc1c(Cl)cncc1Cl)n2C
inhibition at 10 µM: 99%
//
compound: O=C(Nc1cccc(Cl)c1)c1ccc2nc(Nc3c(Cl)cncc3Cl)[nH]c2c1
inhibition at 10 µM: 98%
//
compound: COc1cc2[nH]c(Nc3c(Cl)cncc3Cl)nc2cc1C(=O)Nc1ccc(Br)cn1
inhibition at 10 µM: 99%
//
compound: CCOc1cc2[nH]c(Nc3c(Cl)cncc3Cl)nc2cc1C(=O)Nc1cc(C(F)(F)F)cc(N(C)C)n1
inhibition at 10 µM: 100%
